biological target: Renin (Homo sapiens, UniProt P00797); assay: Inhibition of renin in human plasma using angiotensinogen as substrate measured for 90 mins by [125I]-angiotensin based radioimmunoassay
Sequence (P00797 whole entry): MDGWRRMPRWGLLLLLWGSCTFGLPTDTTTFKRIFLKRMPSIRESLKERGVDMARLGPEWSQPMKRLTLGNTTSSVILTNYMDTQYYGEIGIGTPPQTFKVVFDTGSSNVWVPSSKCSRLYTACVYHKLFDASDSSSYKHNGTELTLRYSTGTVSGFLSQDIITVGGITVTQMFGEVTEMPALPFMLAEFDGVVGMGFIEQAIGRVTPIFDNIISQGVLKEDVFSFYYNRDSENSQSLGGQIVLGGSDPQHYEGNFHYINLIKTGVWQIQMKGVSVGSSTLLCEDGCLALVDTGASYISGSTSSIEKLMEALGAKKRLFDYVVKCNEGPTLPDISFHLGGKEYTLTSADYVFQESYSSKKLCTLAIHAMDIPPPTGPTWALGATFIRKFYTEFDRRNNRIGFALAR
Note to self: use label 1 only for IC50 readings below 500 nM; a reading exactly at 500 nM still gets label 0.

-- ask Quick check: IC50 of CCc1cccc(-c2c(F)cccc2C(O)(CCCNC(=O)OC)[C@@H]2CCCN(C(=O)C3CCNCC3)C2)c1 (stereo partly specified) under 500 nM?
-- reply label 1

-- ask Quick check: IC50 of CCc1cccc(-c2c(F)cccc2C(O)(CCCNC(=O)OC)[C@@H]2CCCN(C(=O)CC(CNC)OC)C2)c1 (stereo partly specified) under 500 nM?
-- reply label 1

-- ask Quick check: IC50 of CCc1cccc(-c2c(F)cccc2C(O)(CCCNC(=O)OC)[C@@H]2CCCN(C(=O)[C@@H](O)CCN)C2)c1 (stereo partly specified) under 500 nM?
-- reply label 0

-- ask Quick check: IC50 of CCc1cccc(-c2c(F)cccc2C(O)(CCCNC(=O)OC)[C@@H]2CCCN(C(=O)CCCNCCO)C2)c1 (stereo partly specified) under 500 nM?
-- reply label 1

-- ask Quick check: IC50 of CCc1cccc(-c2c(F)cccc2C(O)(CCCNC(=O)OC)[C@@H]2CCCN(C(=O)CN)C2)c1 (stereo partly specified) under 500 nM?
-- reply label 0

-- ask Quick check: IC50 of CCc1cccc(-c2c(F)cccc2C(O)(CCCNC(=O)OC)[C@@H]2CCCN(C(=O)CC[C@H](N)C(=O)OC)C2)c1 (stereo partly specified) under 500 nM?
-- reply label 0
